Source listed as the METLIN SMRT retention time set (Domingo-Almenara et al. 2019).

- RUN_DESCRIPTION: gradient 5% acetonitrile 3 min, to 50% in 2 min, to 85% in 15 min, held 3 min, 100 µL/min
- APPLIED_CONDITIONS: column: Zorbax Extend-C18 2.1 x 50 mm; eluents: water / acetonitrile, 0.1% formic acid
VALUE_KIND: RP-LC retention time
Report field: quantity (unit follows the number).

Return reported RP-LC retention time; argument: `COc1ccc(-c2ncc3c(n2)CCN(C(=O)c2cccc(Br)c2)C3)cc1` 1020 s

Return reported RP-LC retention time; argument: `Cc1ccc(-n2c(=O)n(C)c(=O)c3cc(C(=O)Nc4ccc(F)cc4)cnc32)cc1` 904 s

Return reported RP-LC retention time; argument: `Cc1nn(CC(=O)NCc2ccc(F)cc2)c(=O)c2nc(-c3ccccc3)sc12` 872 s

Return reported RP-LC retention time; argument: `CC(C)NC(=O)C1CCN(c2nc3ccc(-c4cncnc4)nc3s2)CC1` 703 s

Return reported RP-LC retention time; argument: `CCn1c(C(=O)NCCN2CCCC2)c(N2CCCC2=O)c2cc(OC)ccc21` 624 s

Return reported RP-LC retention time; argument: `COc1cc(CCC(=O)Nc2c(C(=O)N3CCN(c4ccccn4)CC3)oc3ccccc23)on1` 642 s

Return reported RP-LC retention time; argument: `O=C(Cn1nc2c(N3CCCCCC3)nccn2c1=O)NCc1ccc(F)cc1` 691 s

Return reported RP-LC retention time; argument: `Cc1oc(-c2ccccc2)nc1Cc1noc(Cc2ccc(F)cc2)n1` 1090 s

Return reported RP-LC retention time; argument: `O=C(NCCc1ccccc1)N1CCN(c2cc(-c3ccncc3)[nH]n2)CC1` 607 s

Return reported RP-LC retention time; argument: CCN(CC)S(=O)(=O)c1ccc2c(c1)CC(C(=O)N1CCN(C3CCCCC3)CC1)N2C(C)=O (stereo not drawn) 666 s

Return reported RP-LC retention time; argument: COc1ccc2[nH]cc(CCN3CC(C(=O)Nc4cc(F)cc(F)c4)CC3=O)c2c1 (stereo not drawn) 821 s

Return reported RP-LC retention time; argument: `Cc1nc(C)c(C(=O)Nc2nc(-c3ccc(F)cc3)c(C)s2)s1` 956 s

Return reported RP-LC retention time; argument: `Cc1ccc(CNC(=O)c2ccc3c(c2)nc2n3CCCCC2)o1` 619 s

Return reported RP-LC retention time; argument: `Cn1nc(-c2nnc(-c3ccccc3F)o2)c2c1CCN(S(=O)(=O)c1ccccc1F)C2` 903 s

Return reported RP-LC retention time; argument: CCOC(=O)CNC(=O)C1CC(=O)N(CCc2c[nH]c3ccc(F)cc23)C1 (stereo not drawn) 962 s

Return reported RP-LC retention time; argument: `Cc1ccc(-c2cc(C(=O)NCCCN3CCC(C)CC3)c(C)[nH]2)cc1C` 725 s

Return reported RP-LC retention time; argument: COc1cccc(C2CC(c3cccs3)=NN2C(=O)C(OC)c2ccccc2)c1O (stereo not drawn) 937 s

Return reported RP-LC retention time; argument: `CC1(C)CC(NC(=O)COc2ccccc2Cl)CC(C)(C)N1` 618 s

Return reported RP-LC retention time; argument: `Cc1ccc(C)c(NC(=O)Cn2ncc3c(c2=O)N(CC2CC2)C(=O)CS3)c1` 812 s

Return reported RP-LC retention time; argument: `Cc1ccccc1S(=O)(=O)N1CCCN(c2ccc(=O)n(-c3ccccc3)n2)CC1` 859 s

Return reported RP-LC retention time; argument: `COC(=O)[C@H](Cc1cccc(C(=N)N)c1)[C@@H](C)NC(=O)c1ccc(-c2cc[n+]([O-])cc2)cc1` 610 s

Return reported RP-LC retention time; argument: CCOC(=O)N1CCN(C(=O)C2CC2c2ccc(F)cc2)CC1 (stereo not drawn) 755 s

Return reported RP-LC retention time; argument: `COc1ccccc1NC(=O)N1CCC(n2c(C(F)(F)F)nc3cccnc32)CC1` 898 s

Return reported RP-LC retention time; argument: O=C(NC1CC1)c1ccc(OCC2CCCN(C(=O)c3ccc(F)c(Cl)c3)C2)cc1 (stereo not drawn) 862 s

Return reported RP-LC retention time; argument: `CCOc1cc(=O)n2c(c1C(=O)Nc1cccc3c1CCCC3)CCCC2` 804 s

Return reported RP-LC retention time; argument: `Cc1ccc(CNC(=O)C2(C)CCN(S(=O)(=O)c3ccc(C)cc3C)CC2)cc1` 1040 s

Return reported RP-LC retention time; argument: COc1ccccc1-c1noc(-c2nnn3c2COC(c2ccc(Cl)cc2)C3)n1 (stereo not drawn) 1220 s

Return reported RP-LC retention time; argument: `CC(C)(NC(=O)C1CCC1)c1nc2c(c(C(N)=O)n1)OCCO2` 586 s

Return reported RP-LC retention time; argument: `CC(=O)Nc1ccc(CCc2nc3ccc(C(=O)NC4CC4)cc3[nH]2)cc1` 893 s

Return reported RP-LC retention time; argument: `CCc1nnc(-c2ccc(NS(=O)(=O)c3cccc(OC)c3)cc2)o1` 801 s

Return reported RP-LC retention time; argument: `Cc1ccn2c(NC(=O)c3cccc([N+](=O)[O-])c3C)c(-c3ccccc3)nc2c1` 677 s

Return reported RP-LC retention time; argument: `CC(=O)N1C[C@@H]2CCCN3CCC[C@@H]([C@H]23)[C@H]1CCCC(=O)NCCCc1c(C)noc1C` 575 s

Return reported RP-LC retention time; argument: `Cc1noc(C)c1-c1ccc(S(=O)(=O)N2CCCCCC2)cc1` 1020 s

Return reported RP-LC retention time; argument: `COc1ccc(-c2cn3c(CC(=O)NC4CC4)csc3n2)cc1OC` 607 s

Return reported RP-LC retention time; argument: `O=S(=O)(c1cccnc1)N1CCN(Cc2nnnn2-c2ccc(F)c(F)c2)CC1` 733 s

Return reported RP-LC retention time; argument: `O=C(Nc1ccc(N2CCN(Cc3ccc(F)cc3)C2=O)nc1)C1CCC1` 750 s

Return reported RP-LC retention time; argument: `COc1ccc(S(=O)(=O)NCc2ccc3c(c2)CCN3C(=O)C(C)C)cc1` 861 s

Return reported RP-LC retention time; argument: `Cn1cnc2c1CN(C(=O)c1ccc(Br)o1)CC2` 563 s
